Assay: PK of Compound (A1) after intravenous dosing in mouse
Assay type: in vivo
Details: in vivo, 0.8 mg/kg, read-out: CL
Starred links: 1 amine or outer side, 2 acyl side, 3 side chain; linkers in the order of their positions; H or OH if unused. Positions of bridges follow the written chain, without caps; N, C: chain ends. Non-standard residues stand in square brackets, D forms with d. Residues, ends and D or L forms follow the SMILES beside them. *: point of attachment. Leu(3R-OH,Nα-propionyl) = CCC(=O)N[C@H](C(=O)*)[C@H](O)C(C)C; X1 = CC(C)[C@@H](O[*:3])[C@H](N[*:1])C(=O)[*:2]; NMeT = CN[C@H](C(=O)O)[C@@H](C)O; dPhLac = O=C(O)[C@H](O)Cc1ccccc1; NMeA = CN[C@@H](C)C(=O)O; NMeDha = C=C(NC)C(=O)O
measure name: clearance (mL/min/kg)

C=C1C(=O)N[C@@H](C)C(=O)N(C)[C@@H](C)C(=O)N[C@@H]([C@H](OC(=O)[C@@H](NC(=O)CC)[C@H](O)C(C)C)C(C)C)C(=O)N(C)[C@@H]([C@@H](C)OC)C(=O)O[C@H](C(C)C)[C@H](NC(C)=O)C(=O)O[C@H](Cc2ccccc2)C(=O)N1C [Compound (A1)] (Ac-[X1][dPhLac][NMeDha]A[NMeA][X1](Leu(3R-OH,Nα-propionyl))[NMeT](Me); ester 1-C)
97
